- Tested on: SW-620 colon
- Experimental protocol: NCI-60 one-dose screen, 48 h
- Recorded conditions: 10 µM
The panel holds about 83,000 compounds, 20% with a hit somewhere; the sample as a whole holds those more often. The source made the active and inactive calls. The calls were made as follows: active = growth percent below 10; inactive = the rest.
Pick one: 1 (yes) (active), 0 (no) (inactive)

Lookup: // outcome(item) with item = "O=C(NCCCCC(c1ccc(F)cc1)c1ccc(F)cc1)Nc1ccc([N+](=O)[O-])c(C(F)(F)F)c1"
Found: 1 (yes)

Lookup: Further, for "C[C@H]1[C@H](OC(=O)CCC(=O)N(CCCc2cn(-c3ccc(C#N)cc3)nn2)CCNc2ccnc3cc(Cl)ccc23)O[C@@H]2OC3(C)CC[C@H]4[C@H](C)CC[C@@H]1[C@@]24OO3" ?
Found: 0 (no)

Lookup: Further, for "CN(C)CCc1cn(C2CCC2)c2cccc(O)c12" ?
Found: 0 (no)

Lookup: Further, for "COCCOCCOCCOc1ccc(-n2cc(-c3ccc(O[C@H]4O[C@@H]5OC6(C)CC[C@H]7[C@H](C)CC[C@@H]([C@H]4C)[C@@]57OO6)cc3)nn2)cc1" ?
Found: 0 (no)

Lookup: Further, for "COc1cc2cc(C(=O)N3C[C@@H](CCl)c4c3cc(OC(=O)N3CCN(C)[C@@H]5CSSC[C@@H]53)c3ccccc43)[nH]c2c(OC)c1OC" ?
Found: 1 (yes)

Lookup: Further, for "COc1cc2cc(C(=O)N3C[C@@H](CCl)c4c3cc(OC(=O)N3CCN(C)[C@@H]5CSSC[C@H]53)c3ccccc43)[nH]c2c(OC)c1OC" ?
Found: 1 (yes)

Lookup: Further, for "CC1=C(CCC=NNC(N)=O)C2=C(C)C3(CC3)[C@@](C)(O)C(=O)C2=C1" ?
Found: 1 (yes)

Lookup: Further, for CCOP(=O)(OCC)C(NC(C)=O)C(=O)SCCN (stereo not drawn) ?
Found: 0 (no)

New cases:
Lookup: // outcome(item) with item = "CC12CCC3(CCC(=O)NCCCNc4ccnc5cc(Cl)ccc45)[C@@](C)(OO[C@]3(C)O1)O2"
Found: 0 (no)

Lookup: Further, for CC12OOC(C)(OO1)C2CCC(=O)NCCCNc1ccnc2cc(Cl)ccc12 (stereo not drawn) ?
Found: 0 (no)
